Molecular target: human B1R (bradykinin receptor 1) (Homo sapiens, UniProt P46663)
Construct: expressed in transfected cells; host or cells: CHO K1 cells
Sequence (P46663 whole entry): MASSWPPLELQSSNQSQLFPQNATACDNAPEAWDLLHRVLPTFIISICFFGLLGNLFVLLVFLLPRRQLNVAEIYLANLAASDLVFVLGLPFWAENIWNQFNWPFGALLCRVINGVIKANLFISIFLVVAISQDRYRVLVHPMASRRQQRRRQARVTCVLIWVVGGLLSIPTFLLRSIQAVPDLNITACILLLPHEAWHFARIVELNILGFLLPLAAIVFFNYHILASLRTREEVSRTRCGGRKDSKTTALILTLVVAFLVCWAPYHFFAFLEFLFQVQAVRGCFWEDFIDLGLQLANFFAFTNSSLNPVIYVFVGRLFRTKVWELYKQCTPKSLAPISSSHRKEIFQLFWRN
Assay: FLIPR Ca2+ assay (Fluo-4) on CHO K1 cells stably transfected with the human B1R gene (hB1R cells): % inhibition at 10 μM / IC50, agonist Lys-Des-Arg9-bradykinin
Type: cell-based
Details: CHO-K1, human B1R
quantity: inhibition at 10 µM (%)

In [3]: df
Out[3]:
                                   compound  unit_of_measure  value_observed
0  O=C(NC1CCc2ccc(C(=O)N3CCC4(CC3)CCN(c3ccncc3)C4)cc21)c1c(F)cccc1Cl (stereo not shown) [IND_CC-264]                %              97
1  O=C(NC1CCc2ccc(C(=O)N3CCC4(CC3)CCN(c3ccncc3)C4)cc21)c1c(Cl)cccc1Cl (stereo not shown) [IND_CC-270]                %             100
2  O=C(c1ccc2c(c1)[C@H](NS(=O)(=O)c1cc(Cl)ccc1Cl)CC2)N1CCC2(CCN(c3ccncc3)CC2)C1 [Example H-142]                %              98
3  O=C(Cc1ccccc1F)N[C@@H]1CCc2ccc(C(=O)N3CCC4(CCN(c5ccncc5)CC4)C3)cc21 [Example H-152]                %              99

Source: patent US8455475B2
